study_target: USP7 (Homo sapiens, UniProt Q93009)
Sequence (Q93009 whole entry): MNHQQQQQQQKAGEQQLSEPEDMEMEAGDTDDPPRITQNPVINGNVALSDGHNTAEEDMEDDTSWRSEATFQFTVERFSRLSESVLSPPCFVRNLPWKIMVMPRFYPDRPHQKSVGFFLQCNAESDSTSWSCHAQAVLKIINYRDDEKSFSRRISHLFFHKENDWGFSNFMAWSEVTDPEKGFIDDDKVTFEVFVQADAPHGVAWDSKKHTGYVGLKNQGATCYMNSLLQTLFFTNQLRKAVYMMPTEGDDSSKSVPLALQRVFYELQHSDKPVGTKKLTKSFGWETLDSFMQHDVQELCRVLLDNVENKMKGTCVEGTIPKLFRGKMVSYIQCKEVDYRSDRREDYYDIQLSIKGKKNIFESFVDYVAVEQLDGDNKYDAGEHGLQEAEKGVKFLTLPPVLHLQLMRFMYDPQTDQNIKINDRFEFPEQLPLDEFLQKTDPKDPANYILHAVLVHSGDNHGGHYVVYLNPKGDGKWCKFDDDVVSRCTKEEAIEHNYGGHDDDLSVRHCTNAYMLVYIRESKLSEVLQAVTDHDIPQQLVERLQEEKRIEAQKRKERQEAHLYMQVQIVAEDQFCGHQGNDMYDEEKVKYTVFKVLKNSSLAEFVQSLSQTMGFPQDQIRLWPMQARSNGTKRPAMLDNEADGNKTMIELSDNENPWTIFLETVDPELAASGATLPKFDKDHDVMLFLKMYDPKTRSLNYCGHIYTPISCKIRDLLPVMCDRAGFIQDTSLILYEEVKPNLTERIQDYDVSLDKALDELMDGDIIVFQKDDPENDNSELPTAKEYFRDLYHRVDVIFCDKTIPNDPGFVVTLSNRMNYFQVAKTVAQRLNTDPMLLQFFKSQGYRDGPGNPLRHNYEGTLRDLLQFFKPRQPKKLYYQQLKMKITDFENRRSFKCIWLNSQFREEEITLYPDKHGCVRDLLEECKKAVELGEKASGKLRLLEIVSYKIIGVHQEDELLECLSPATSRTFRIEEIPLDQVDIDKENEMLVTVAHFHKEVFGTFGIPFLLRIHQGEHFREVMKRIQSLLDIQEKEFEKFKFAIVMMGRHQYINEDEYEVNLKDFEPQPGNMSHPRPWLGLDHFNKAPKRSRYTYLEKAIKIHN
pIC50: −log10 of the molar value.
The following compounds are shown together with reported pIC50 values.

Use these answered entries as a reference point.
> print(dat)
                                   compound  value.measured
1  COc1ccc2nccc(-c3cc(Cl)cc4c3O[C@@H](c3onc5c3CNCC5)C4)c2c1    4.52 to 5.00
2  CN(C)C1CN(C(=O)[C@H]2Cc3cc(Cl)cc(-c4ccnc5ccsc45)c3O2)C1          > 6.00
3  Cc1nnc2n1CCN(C(=O)[C@H]1Cc3cc(Cl)cc(-c4ccnc5cc(CO)sc45)c3O1)C2    5.00 to 6.00
4  O=C1CN(Cc2cc3nccc(-c4cc(Cl)cc5c4O[C@@H](C(=O)N4CCNCC4)C5)c3s2)C(=O)N1          > 6.00
5  O=C([C@H]1Cc2cc(Cl)cc(-c3ccnc4cc(CN5C(=O)CSC5=O)sc34)c2O1)N1CCNCC1          > 6.00
6  O=C([C@H]1Cc2cc(Cl)cc(-c3ccnc4c3CC(CN3C(=O)CCC3=O)C4)c2O1)N1CCNCC1 (stereo partly drawn)          > 6.00

Short answer on USP7 (Homo sapiens, UniProt Q93009) for Clc1cc2c(c(-c3ccnc4cc(Cl)ccc34)c1)O[C@@H](c1onc3c1CNCC3)C2 , pIC50: > 6.00

Considering O=C([C@H]1Cc2cc(Cl)cc(-c3ccnc4cc(C5(O)COC5)sc34)c2O1)N1CCNCC1 , its pIC50 with USP7 (Homo sapiens, UniProt Q93009) was recorded as > 6.00

Reading of pIC50 for O=C1CCC(c2cc3nccc(-c4cc(Cl)cc5c4O[C@@H](c4onc6c4CNCC6)C5)c3s2)N1 (stereo partly drawn) with USP7 (Homo sapiens, UniProt Q93009): 5.00 to 6.00

Param item: CCC(O)c1cc2nccc(-c3cc(Cl)cc4c3O[C@@H](c3onc5c3CNCC5)CC4)c2s1 (stereo partly drawn) ; param system: USP7 (Homo sapiens, UniProt Q93009); output pIC50: > 6.00
